- ASSAYED TARGET: T1, mouse PD-1 antigen protein of the affinity-maturation screen (mouse, UniProt Q02242 25-167, limits assumed, biotinylated)
- T1 sequence (looked up): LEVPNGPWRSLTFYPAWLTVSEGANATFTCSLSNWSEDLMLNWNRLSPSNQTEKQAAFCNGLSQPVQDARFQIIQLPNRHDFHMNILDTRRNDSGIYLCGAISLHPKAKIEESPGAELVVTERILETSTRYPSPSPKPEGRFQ
- ASSAY SUMMARY: capture ELISA, second-round affinity-maturation screen (scFv format likely); unit not given
ATTRIBUTE MEASURED: Bmax
API note: the answer field is a bare number with no unit suffix.

Given the entry 2G4 (antibody, human IgG4, V domains shown) VH: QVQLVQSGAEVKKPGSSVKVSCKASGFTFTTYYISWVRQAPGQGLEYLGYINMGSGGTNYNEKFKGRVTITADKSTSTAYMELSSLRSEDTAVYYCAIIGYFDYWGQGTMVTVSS VL: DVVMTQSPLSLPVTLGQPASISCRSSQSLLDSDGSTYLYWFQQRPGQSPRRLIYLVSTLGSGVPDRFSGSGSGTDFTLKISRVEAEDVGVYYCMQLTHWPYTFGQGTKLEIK , report its measured Bmax. 0.479

Given the entry 5C4 (antibody, V domains shown) VH: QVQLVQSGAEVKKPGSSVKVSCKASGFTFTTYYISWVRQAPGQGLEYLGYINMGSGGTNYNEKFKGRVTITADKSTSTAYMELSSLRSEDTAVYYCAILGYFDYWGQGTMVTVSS VL: DVVMTQSPLSLPVTLGQPASISCRSSQSLLDSDGQTYLYWFQQRPGQSPRRLIYLVSTLGSGVPDRFSGSGSGTDFTLKISRVEAEDVGVYYCMQLTHEPYTFGQGTKLEIK , report its measured Bmax. 0.164

Given the entry 8C10 (antibody, V domains shown) VH: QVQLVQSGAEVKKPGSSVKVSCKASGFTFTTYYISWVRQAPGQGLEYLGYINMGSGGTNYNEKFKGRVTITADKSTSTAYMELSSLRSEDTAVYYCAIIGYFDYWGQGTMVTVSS VL: DVVMTQSPLSLPVTLGQPASISCRSSQSLLDSDGQTYLYWFQQRPGQSPRRLIYLVSTLGSGVPDRFSGSGSGTDFTLKISRVEAEDVGVYYCMQLTHENYTFGQGTKLEIK , report its measured Bmax. 0.437

Alright, here's another binder for you.
Given the entry 1G10 (antibody, V domains shown) VH: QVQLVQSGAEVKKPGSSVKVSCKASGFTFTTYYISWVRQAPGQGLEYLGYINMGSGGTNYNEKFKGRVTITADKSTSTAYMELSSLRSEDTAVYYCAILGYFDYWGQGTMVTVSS VL: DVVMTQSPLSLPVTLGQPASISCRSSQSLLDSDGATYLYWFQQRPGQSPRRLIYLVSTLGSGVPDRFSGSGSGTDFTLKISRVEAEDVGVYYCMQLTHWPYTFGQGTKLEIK , report its measured Bmax. 0.3
